- System: IGROV1 complex spheroids (HUVEC, MSC), viability % test/control
- TEST_SUMMARY: Anticancer human tumor IGROV1 cell line growth inhibition [GQUAD];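 further: spheroids exposed to compounds for 7 days before readout; 100% = DMSO vehicle control viability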
- CONDITION_INFO: second compound 0.316 µM; first compound 0.0316 µM; hits give low values
ATTRIBUTE_MEASURED: viability, T/C (%)

MOLECULE	ATTRIBUTE_MEASURED	NUMERIC_RESULT
CC[C@@]1(O)C(=O)OCc2c1cc1n(c2=O)Cc2cc3c(CN(C)C)c(O)ccc3nc2-1 + CN(C)c1ccc(Nc2c3ccc(NC(=O)CCN4CCCC4)cc3nc3cc(NC(=O)CCN4CCCC4)ccc23)cc1	viability, T/C	39.4
CCCS(=O)(=O)Nc1ccc(F)c(C(=O)c2c[nH]c3ncc(-c4ccc(Cl)cc4)cc23)c1F + Cc1[nH]c2ccc(F)cc2c1-c1nc2c3cccnc3c3ncccc3c2[nH]1	viability, T/C	86.6
C=CCn1c(=O)c2cnc(Nc3ccc(N4CCN(C)CC4)cc3)nc2n1-c1cccc(C(C)(C)O)n1 + Cc1cnc(CNC(=O)c2c(=O)c3ccc(N4CCCN(C)CC4)nc3n3c2sc2ccccc23)cn1	viability, T/C	16.9
